Biological target: T1, CD3 epsilon homodimer protein (UniProt P07766 23-126)
T1 construct: also called CD3 (CD3 epsilon)
T1 sequence (P07766 23-126): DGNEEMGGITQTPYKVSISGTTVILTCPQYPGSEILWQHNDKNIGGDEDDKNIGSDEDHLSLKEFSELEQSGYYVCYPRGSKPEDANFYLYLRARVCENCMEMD
Assay: SPR, antibody over immobilised CD3e homodimer;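 note: SPR at 25 °C with CD3 epsilon homodimer amine-coupled to a CM4 sensor chip and antibody flowed over as analyte in HBS-EP+ running buffer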
Parameter: KD ratio to GLS3000. Scope: all listed entries.

CE115HA000/GLS3000 N28G (antibody, IgG1, name in Kabat numbering, V domains shown, one-arm IgG1) VH: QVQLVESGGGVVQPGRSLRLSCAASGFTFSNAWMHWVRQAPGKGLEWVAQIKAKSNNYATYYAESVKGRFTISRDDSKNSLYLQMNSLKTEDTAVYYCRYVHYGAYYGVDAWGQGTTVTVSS VL: DIVMTQSPLSLPVTPGEPASISCRSSQSLVHSGRNTYLHWYQQKPGQAPRLLIYKVSNRFSGVPDRFSGSGSGTDFTLKISRVEAEDVGVYYCGQGTQVPYTFGQGTKLEIK
2.41

*Q* Consider the binder CE115HA000/GLS3000 F55Y (antibody, IgG1, name in Kabat numbering, V domains shown, one-arm IgG1) VH: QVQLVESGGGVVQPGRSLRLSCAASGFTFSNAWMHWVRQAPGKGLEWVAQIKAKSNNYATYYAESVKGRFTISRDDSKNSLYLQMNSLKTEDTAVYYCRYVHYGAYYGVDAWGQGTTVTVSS VL: DIVMTQSPLSLPVTPGEPASISCRSSQSLVHSNRNTYLHWYQQKPGQAPRLLIYKVSNRYSGVPDRFSGSGSGTDFTLKISRVEAEDVGVYYCGQGTQVPYTFGQGTKLEIK and give its measured KD ratio to GLS3000.
*A* 1.13

*Q* Cool, now CE115HA000/GLS3000 Y96D (antibody, IgG1, name in Kabat numbering, V domains shown, one-arm IgG1) VH: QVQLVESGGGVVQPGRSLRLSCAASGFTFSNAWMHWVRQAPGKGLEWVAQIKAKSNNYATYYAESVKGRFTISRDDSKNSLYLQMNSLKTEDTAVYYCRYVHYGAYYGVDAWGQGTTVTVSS VL: DIVMTQSPLSLPVTPGEPASISCRSSQSLVHSNRNTYLHWYQQKPGQAPRLLIYKVSNRFSGVPDRFSGSGSGTDFTLKISRVEAEDVGVYYCGQGTQVPDTFGQGTKLEIK
*A* 40.9

*Q* Cool, now CE115HA000/GLS3000 V94S (antibody, IgG1, name in Kabat numbering, V domains shown, one-arm IgG1) VH: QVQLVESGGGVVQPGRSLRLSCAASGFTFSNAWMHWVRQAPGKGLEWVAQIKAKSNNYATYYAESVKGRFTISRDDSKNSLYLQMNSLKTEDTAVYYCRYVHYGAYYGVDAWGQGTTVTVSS VL: DIVMTQSPLSLPVTPGEPASISCRSSQSLVHSNRNTYLHWYQQKPGQAPRLLIYKVSNRFSGVPDRFSGSGSGTDFTLKISRVEAEDVGVYYCGQGTQSPYTFGQGTKLEIK
*A* 0.81

*Q* Cool, now CE115HA000/GLS3000 V94K (antibody, IgG1, name in Kabat numbering, V domains shown, one-arm IgG1) VH: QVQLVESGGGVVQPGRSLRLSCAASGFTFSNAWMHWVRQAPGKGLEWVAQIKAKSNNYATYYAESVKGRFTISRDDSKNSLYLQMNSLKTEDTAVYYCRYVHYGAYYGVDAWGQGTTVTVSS VL: DIVMTQSPLSLPVTPGEPASISCRSSQSLVHSNRNTYLHWYQQKPGQAPRLLIYKVSNRFSGVPDRFSGSGSGTDFTLKISRVEAEDVGVYYCGQGTQKPYTFGQGTKLEIK
*A* 0.91

*Q* Cool, now CE115HA000/GLS3000 R24T (antibody, IgG1, name in Kabat numbering, V domains shown, one-arm IgG1) VH: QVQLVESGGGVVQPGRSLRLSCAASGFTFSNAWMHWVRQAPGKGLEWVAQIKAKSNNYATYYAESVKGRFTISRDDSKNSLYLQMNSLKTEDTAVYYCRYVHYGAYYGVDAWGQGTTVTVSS VL: DIVMTQSPLSLPVTPGEPASISCTSSQSLVHSNRNTYLHWYQQKPGQAPRLLIYKVSNRFSGVPDRFSGSGSGTDFTLKISRVEAEDVGVYYCGQGTQVPYTFGQGTKLEIK
*A* 1.03

*Q* Cool, now CE115HA000/GLS3000 H27dE (antibody, IgG1, name in Kabat numbering, V domains shown, one-arm IgG1) VH: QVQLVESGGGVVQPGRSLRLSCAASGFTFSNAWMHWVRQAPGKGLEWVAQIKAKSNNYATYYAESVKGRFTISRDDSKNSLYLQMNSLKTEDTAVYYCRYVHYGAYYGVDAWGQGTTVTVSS VL: DIVMTQSPLSLPVTPGEPASISCRSSQSLVESNRNTYLHWYQQKPGQAPRLLIYKVSNRFSGVPDRFSGSGSGTDFTLKISRVEAEDVGVYYCGQGTQVPYTFGQGTKLEIK
*A* 42.3

*Q* Cool, now CE115HA000/GLS3000 G89P (antibody, IgG1, name in Kabat numbering, V domains shown, one-arm IgG1) VH: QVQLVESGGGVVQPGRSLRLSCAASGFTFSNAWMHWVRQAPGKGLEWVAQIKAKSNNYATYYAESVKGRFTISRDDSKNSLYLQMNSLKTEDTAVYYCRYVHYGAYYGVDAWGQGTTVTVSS VL: DIVMTQSPLSLPVTPGEPASISCRSSQSLVHSNRNTYLHWYQQKPGQAPRLLIYKVSNRFSGVPDRFSGSGSGTDFTLKISRVEAEDVGVYYCPQGTQVPYTFGQGTKLEIK
*A* 1.8

*Q* Cool, now CE115HA000/GLS3000 H27dQ (antibody, IgG1, name in Kabat numbering, V domains shown, one-arm IgG1) VH: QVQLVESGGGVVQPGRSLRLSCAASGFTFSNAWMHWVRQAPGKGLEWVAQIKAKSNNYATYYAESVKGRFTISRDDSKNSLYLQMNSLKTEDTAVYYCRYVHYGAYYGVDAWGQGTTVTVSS VL: DIVMTQSPLSLPVTPGEPASISCRSSQSLVQSNRNTYLHWYQQKPGQAPRLLIYKVSNRFSGVPDRFSGSGSGTDFTLKISRVEAEDVGVYYCGQGTQVPYTFGQGTKLEIK
*A* 7.48

*Q* Cool, now CE115HA000/GLS3000 Q93D (antibody, IgG1, name in Kabat numbering, V domains shown, one-arm IgG1) VH: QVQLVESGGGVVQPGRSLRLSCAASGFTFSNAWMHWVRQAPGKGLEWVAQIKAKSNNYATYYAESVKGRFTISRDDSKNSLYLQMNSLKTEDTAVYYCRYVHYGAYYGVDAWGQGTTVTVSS VL: DIVMTQSPLSLPVTPGEPASISCRSSQSLVHSNRNTYLHWYQQKPGQAPRLLIYKVSNRFSGVPDRFSGSGSGTDFTLKISRVEAEDVGVYYCGQGTDVPYTFGQGTKLEIK
*A* 0.72
